Measured GI50 of individual entries
tested on: LOX IMVI; assay: NCI tumour cell line growth inhibition, 48 h
Calls of active or inactive are those of the source. Cut-off read from the data, not from the text of the source: active = GI50 up to about 1.1 µM and inactive = higher.

Cc1n[nH]c(=O)n1/N=C\c1ccccc1 ... > 100 µM (inactive)

# get_value(readout='GI50', item= COCCOc1nc(-c2ccccc2)nc2ccccc12 )
47.8 µM (inactive)

Need GI50 of Cc1ccc(-c2c(C#N)c(N)nc3c2CCS(=O)(=O)c2ccccc2-3)cc1 , thanks.
> 100 µM (inactive)

Which value of GI50 has been reported for Cc1ccc([N+](=O)[O-])cc1S(=O)(=O)Nc1ccc(C2=NN(c3ccc([N+](=O)[O-])cc3[N+](=O)[O-])C(c3cccs3)C2)cc1 (configuration not stated) in the records?
18.3 µM (inactive)

Any idea what its GI50 is? The compound is CCOP(=O)(OCC)C1C(CO)OC(n2ccc(=O)[nH]c2=O)C1O (configuration not stated)
> 100 µM (inactive)

* * *

system: SW-620; experiment: NCI tumour cell line growth inhibition, 48 h
Active and inactive are the calls of the source. Rule as the data show it: active = GI50 up to about 1.1 µM and inactive = higher.
Valid outcomes are listed here; reply with one: Y for active, N for inactive

Solved entries (count: 8):
CCCCCCCCCCCCCB(O)O ... N
O=C1C(=CNc2ccc([N+](=O)[O-])cc2)C(=O)N(c2ccccc2)C(=O)N1c1ccccc1 ... N
S=C(NCCc1ccccn1)N/N=C(\c1ccccc1)c1ccccn1 ... Y
Cc1cc(C)c(N[S+]([O-])c2cccc(Cl)c2)c(C)c1 (stereo not drawn) ... N
CN1CCc2c(sc3nc(S)nc(S)c23)C1 ... N
CCOC(=O)CC1=N/C(=N/c2cc(Cl)ccc2Cl)SC1 ... N
NC(=O)c1cc(-c2ccc(-n3ccnc3)cc2)nnc1O ... N
CCN(CC)c1ccc(C2Nc3ccc4ccccc4c3C3=C2C(=O)CCC3)cc1 (stereo not drawn) ... N

Call for entry CCOC(=O)C1(Cc2ccccc2)Cc2cc3c(cc2C1)CCC3 :
N

In this assay, the call recorded for COC(=O)C(C(=O)C(=O)Nc1c(Cl)cc([N+](=O)[O-])cc1Cl)c1nc2cc(C)c(C)cc2nc1O (stereo not drawn) was what?
N

Hey, what did the test say about COc1ccc(C(CC(=O)c2ccc3c(c2)OCO3)c2c(O)oc3ccccc3c2=O)cc1OC (stereo not drawn) ?
N

Outcome logged for CC(=O)OC1CC2c3cccc4c3C(CC2N(C)C1=O)CN4C(=O)c1ccccc1 (stereo not drawn) in this assay:
N

Each compound tested received a call. Report the one for O=P(O)(O)CN1CCN(CP(=O)(O)O)CCN(CP(=O)(O)O)CCN(CP(=O)(O)O)CC1 .
N

* * *

system: HT-29; assay: NCI tumour cell line growth inhibition, 48 h
Activity calls are given as the source filed them. Cut-off read from the data, not from the text of the source: active = GI50 up to about 1.1 µM and inactive = higher.
The entries below are paired with their reported GI50.

Some compounds with known GI50 results, for comparison:
C[C@H](CCC(=O)O)[C@H]1CC[C@H]2[C@@H]3[C@H](O)C[C@@H]4C[C@H](O)CC[C@]4(C)[C@H]3CC[C@]12C ... 24.3 µM (inactive)
O=P(O)(O)CN1CCN(CP(=O)(O)O)CCN(CP(=O)(O)O)CCN(CP(=O)(O)O)CC1 ... 69 µM (inactive)
Cc1c(S(=O)(=O)N/C(N)=N/c2ccc(Cl)cc2)sc2ccc(Cl)cc12 ... 19.8 µM (inactive)
CCCCC1CC(c2cccc([N+](=O)[O-])c2)=NO1 (centres undefined) ... 28.6 µM (inactive)
CCCCCCCCCCCC(=O)OCCOCCOCCOCCOCCOC(=O)CCCCCCCCCCC ... > 100 µM (inactive)
COc1ccc(/C=C/C(=O)c2c(-c3ccccc3)nn(C)c(=O)c2N2CCCCC2)cc1 ... 14.9 µM (inactive)

GET /values?readout=GI50&system=HT-29&item= O=C(O)CCC1CCc2cccc(OCC(=O)O)c2C1=O (centres undefined)
> 100 µM (inactive)

For HT-29, provide GI50 of CC1(C)OC2C(O)C(CO)OC2(C(F)F)O1 (centres undefined) please.
> 100 µM (inactive)

Fill in the recorded GI50 for this compound, with HT-29 as test system: COc1cc2c(cc1OC)[C@@H](Nc1ccc(C#N)cc1)C1COC(=O)[C@@H]1C2c1cc(OC)c(O)c(OC)c1 (some centres undefined)
1.87 µM (inactive)

Recorded GI50 for CCN1CCC(O)(c2ccc(OC)cc2)C(C(=O)c2ccc(OC)cc2)C1 (centres undefined) with HT-29, please?
22 µM (inactive)
